studySystem: bovine liver DHFR (Bos taurus, UniProt P00376)
Construct: from tissue; host or cells: bovine liver
Sequence (P00376 1-187): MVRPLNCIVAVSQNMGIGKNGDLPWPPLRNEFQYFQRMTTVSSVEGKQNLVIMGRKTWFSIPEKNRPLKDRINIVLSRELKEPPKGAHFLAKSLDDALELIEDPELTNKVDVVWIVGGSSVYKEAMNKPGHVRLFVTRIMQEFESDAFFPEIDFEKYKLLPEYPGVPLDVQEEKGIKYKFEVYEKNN
assayName: Kinetic analysis of inhibition of bovine liver DHFR
Assay type: biochemical
assaySetup: KI, initial binding to enzyme-NADPH complex, pH 7.58, 25° C.
quantity: pKi
Give bare numbers, as −log10 of the molar value.

Problem: Endpoint output: pKi of O=C(O[C@@H]1Cc2c(O)cc(O)cc2O[C@@H]1c1ccc(O)c(O)c1)c1cc(O)c(O)c(O)c1 [ECG, (−)-epicatechin gallate] . Value?
Result: 7.29

###

studySystem: S. maltophilia DHFR (Stenotrophomonas maltophilia, UniProt B2FPG1)
Sequence (B2FPG1 entry or part of it): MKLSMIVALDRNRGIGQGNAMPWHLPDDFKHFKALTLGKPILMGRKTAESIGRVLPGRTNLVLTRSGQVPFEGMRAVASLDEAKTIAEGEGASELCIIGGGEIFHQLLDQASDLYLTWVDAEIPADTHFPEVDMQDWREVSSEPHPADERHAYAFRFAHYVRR
Assay type: biochemical
quantity: pKi
Give bare numbers, as −log10 of the molar value.

Problem: Endpoint output: pKi of "COc1cc(Cc2cnc(N)nc2N)cc(OC)c1OC" . Value?
Result: 5.33
